PROTOCOL DESCRIPTION: in vitro
ASSAY CONDITIONS: PAMPA, pH 6.8, PAMPA permeability
Cut-off 7 ×10⁻⁶ cm/s on Papp: below means 1 (yes), at or above means 0 (no).

>  <COMPOUND>
C=CC(=O)Nc1cccc(-n2c(=O)ccc3cnc4cc(N5CCN(S(C)(=O)=O)CC5)ccc4c32)c1 [JS27]

>  <LABEL VALUE>
0 (no)

$$$$
>  <COMPOUND>
C=CC(=O)Nc1cc(C)cc(-n2c(=O)ccc3cnc4cc(-c5ccc(NS(C)(=O)=O)cc5)ccc4c32)c1 [JS25]

>  <LABEL VALUE>
1 (yes)

$$$$
>  <COMPOUND>
C=CC(=O)Nc1cc(-n2c(=O)ccc3cnc4ccc(-c5ccc(NS(C)(=O)=O)cc5)cc4c32)ccc1C [BMX-IN-1, reference compound]

>  <LABEL VALUE>
0 (no)

$$$$
>  <COMPOUND>
C=CC(=O)Nc1cccc(-n2c(=O)ccc3cnc4cc(-c5ccc(NS(C)(=O)=O)cc5)ccc4c32)c1 [JS26]

>  <LABEL VALUE>
0 (no)

$$$$

====

Listed next: entries and their corresponding IC50.
EXPERIMENTAL TARGET: BMX (Homo sapiens)
Sequence (P51813 whole entry): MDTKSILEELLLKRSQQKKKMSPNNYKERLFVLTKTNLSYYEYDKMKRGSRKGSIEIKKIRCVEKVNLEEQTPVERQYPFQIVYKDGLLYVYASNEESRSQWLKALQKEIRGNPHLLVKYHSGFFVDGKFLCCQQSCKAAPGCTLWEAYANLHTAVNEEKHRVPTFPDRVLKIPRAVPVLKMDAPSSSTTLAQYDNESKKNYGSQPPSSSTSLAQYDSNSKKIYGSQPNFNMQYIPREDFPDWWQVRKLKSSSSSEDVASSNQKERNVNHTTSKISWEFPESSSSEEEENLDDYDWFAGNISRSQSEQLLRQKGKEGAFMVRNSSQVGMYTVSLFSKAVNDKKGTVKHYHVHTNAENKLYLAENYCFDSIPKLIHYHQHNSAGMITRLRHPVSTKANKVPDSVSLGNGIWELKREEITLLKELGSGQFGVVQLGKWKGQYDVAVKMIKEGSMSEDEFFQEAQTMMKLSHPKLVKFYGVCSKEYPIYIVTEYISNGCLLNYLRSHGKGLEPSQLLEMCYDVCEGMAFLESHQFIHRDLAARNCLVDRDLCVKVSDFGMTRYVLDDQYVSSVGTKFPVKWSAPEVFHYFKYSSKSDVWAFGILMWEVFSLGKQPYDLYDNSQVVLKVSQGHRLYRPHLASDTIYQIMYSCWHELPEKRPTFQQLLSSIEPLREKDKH
PROTOCOL DESCRIPTION: BMX biochemical activity assay (HTRF, phosphorylation of a biotinylated peptide)
ASSAY CONDITIONS: Experiment 4 of Fig. S3 = Fig. 1b; duplicate, mean ± S.D.; read-out: BMX inhibition IC50
ATTRIBUTE MEASURED: IC50 (nM)

>  <MOLECULE>
C=CC(=O)Nc1cccc(-n2c(=O)ccc3cnc4cc(-c5ccc(NS(C)(=O)=O)cc5)ccc4c32)c1 [JS26]

>  <EXPERIMENTAL TARGET>
BMX (Homo sapiens)

>  <NUMERIC RESULT>
9.1

$$$$
>  <MOLECULE>
C=CC(=O)Nc1cccc(-n2c(=O)ccc3cnc4cc(N5CCN(S(C)(=O)=O)CC5)ccc4c32)c1 [JS27]

>  <EXPERIMENTAL TARGET>
BMX (Homo sapiens)

>  <NUMERIC RESULT>
13.7

$$$$
>  <MOLECULE>
C=CC(=O)Nc1cc(-n2c(=O)ccc3cnc4cc(-c5ccc(NS(C)(=O)=O)cc5)ccc4c32)ccc1C [JS24]

>  <EXPERIMENTAL TARGET>
BMX (Homo sapiens)

>  <NUMERIC RESULT>
7.5

$$$$
>  <MOLECULE>
C=CC(=O)Nc1cc(C)cc(-n2c(=O)ccc3cnc4cc(-c5ccc(NS(C)(=O)=O)cc5)ccc4c32)c1 [JS25]

>  <EXPERIMENTAL TARGET>
BMX (Homo sapiens)

>  <NUMERIC RESULT>
3.5

$$$$

====

EXPERIMENTAL TARGET: recombinant human BMX protein (hBMX) (Homo sapiens, UniProt P51813)
Construct: Crystallization, data collection, and structure determination of BMX catalytic domain in; made in house; host or cells: Sf-9 insect cells
PROTOCOL DESCRIPTION: Differential scanning fluorimetry (DSF)
Format: binding
ASSAY CONDITIONS: 100 μM compound, versus apo-BMX; read-out: ΔTm

>  <MOLECULE>
C=CC(=O)Nc1ccc(C)c(-n2c(=O)ccc3cnc4ccc(-c5ccc(NS(C)(=O)=O)cc5)cc4c32)c1

>  <ΔTm at 100 µM [°C]>
2.2

$$$$
>  <MOLECULE>
C=CC(=O)Nc1cccc(-n2c(=O)ccc3cnc4cc(N5CCN(S(C)(=O)=O)CC5)ccc4c32)c1

>  <ΔTm at 100 µM [°C]>
10.8

$$$$
>  <MOLECULE>
C=CC(=O)Nc1cccc(-n2c(=O)ccc3cnc4cc(-c5ccc(NS(C)(=O)=O)cc5)ccc4c32)c1

>  <ΔTm at 100 µM [°C]>
9.34

$$$$
>  <MOLECULE>
C=CC(=O)Nc1cc(-n2c(=O)ccc3cnc4ccc(-c5ccc(NS(C)(=O)=O)cc5)cc4c32)ccc1C [BMX-IN-1, reference compound]

>  <ΔTm at 100 µM [°C]>
8.04

$$$$
>  <MOLECULE>
C=CC(=O)Nc1cc(-n2c(=O)ccc3cnc4cc(-c5ccc(NS(C)(=O)=O)cc5)ccc4c32)ccc1C

>  <ΔTm at 100 µM [°C]>
11.3

$$$$
>  <MOLECULE>
C=CC(=O)Nc1cc(C)cc(-n2c(=O)ccc3cnc4ccc(-c5ccc(NS(C)(=O)=O)cc5)cc4c32)c1

>  <ΔTm at 100 µM [°C]>
7.75

$$$$

====

PROTOCOL DESCRIPTION: in vitro
ASSAY CONDITIONS: PAMPA, pH 6.8, PAMPA/Pe effective permeability

>  <COMPOUND>
C=CC(=O)Nc1cc(C)cc(-n2c(=O)ccc3cnc4ccc(-c5ccc(NS(C)(=O)=O)cc5)cc4c32)c1

>  <UNIT ABBREVIATION>
×10⁻⁶ cm/s

>  <Papp>
7.1

$$$$
>  <COMPOUND>
C=CC(=O)Nc1cc(-n2c(=O)ccc3cnc4ccc(-c5ccc(NS(C)(=O)=O)cc5)cc4c32)ccc1C [BMX-IN-1, reference compound]

>  <UNIT ABBREVIATION>
×10⁻⁶ cm/s

>  <Papp>
8.9

$$$$
>  <COMPOUND>
C=CC(=O)Nc1cc(C)cc(-n2c(=O)ccc3cnc4cc(-c5ccc(NS(C)(=O)=O)cc5)ccc4c32)c1

>  <UNIT ABBREVIATION>
×10⁻⁶ cm/s

>  <Papp>
3.8

$$$$
>  <COMPOUND>
C=CC(=O)Nc1cccc(-n2c(=O)ccc3cnc4cc(-c5ccc(NS(C)(=O)=O)cc5)ccc4c32)c1

>  <UNIT ABBREVIATION>
×10⁻⁶ cm/s

>  <Papp>
19

$$$$
>  <COMPOUND>
C=CC(=O)Nc1ccc(C)c(-n2c(=O)ccc3cnc4ccc(-c5ccc(NS(C)(=O)=O)cc5)cc4c32)c1

>  <UNIT ABBREVIATION>
×10⁻⁶ cm/s

>  <Papp>
11

$$$$
>  <COMPOUND>
C=CC(=O)Nc1cccc(-n2c(=O)ccc3cnc4cc(N5CCN(S(C)(=O)=O)CC5)ccc4c32)c1

>  <UNIT ABBREVIATION>
×10⁻⁶ cm/s

>  <Papp>
12

$$$$
>  <COMPOUND>
C=CC(=O)Nc1cc(-n2c(=O)ccc3cnc4cc(-c5ccc(NS(C)(=O)=O)cc5)ccc4c32)ccc1C

>  <UNIT ABBREVIATION>
×10⁻⁶ cm/s

>  <Papp>
6.8

$$$$

====

Listed next: entries and their corresponding solubility.
PROTOCOL DESCRIPTION: Dynamic light scattering, colloidal aggregation
Assay type: physicochemical
ASSAY CONDITIONS: measured at 10 µM, 1 µM and 100 nM; water, 25 °C; read-out: DLS maximum soluble concentration at which no aggregates are observed
ATTRIBUTE MEASURED: solubility

>  <COMPOUND>
C=CC(=O)Nc1cc(-n2c(=O)ccc3cnc4ccc(-c5ccc(C#N)nc5)cc4c32)ccc1C [JS18]

>  <RESULT>
< 0.1 µM

$$$$
>  <COMPOUND>
C=CC(=O)Nc1cc(-n2c(=O)ccc3cnc4ccc(-c5ccc(NS(=O)(=O)CCCC)cc5)cc4c32)ccc1C [JS14]

>  <RESULT>
0.1 µM

$$$$
>  <COMPOUND>
COC(=O)C=CCNc1cc(-n2c(=O)ccc3cnc4ccc(-c5ccc(NS(C)(=O)=O)cc5)cc4c32)ccc1C (mixture of isomers) [JS13]

>  <RESULT>
0.1 µM

$$$$

====

ASSAY CONDITIONS: pH 6.8
ATTRIBUTE MEASURED: PAMPA/%R membrane retention (%)

>  <COMPOUND>
Cc1ccc(-n2c(=O)ccc3cnc4ccc(-c5ccc(NS(C)(=O)=O)cc5)cc4c32)cc1NCC=CC#N (mixture of isomers) [JS12]

>  <NUMERIC RESULT>
39

$$$$
>  <COMPOUND>
C=CC(=O)Nc1cccc(-n2c(=O)ccc3cnc4cc(N5CCN(S(C)(=O)=O)CC5)ccc4c32)c1 [JS27]

>  <NUMERIC RESULT>
42

$$$$
>  <COMPOUND>
C=CC(=O)Nc1cc(-n2c(=O)ccc3cnc4ccc(N5CCCCC5)cc4c32)ccc1C [JS20]

>  <NUMERIC RESULT>
18

$$$$
>  <COMPOUND>
C=CC(=O)Nc1cc(-n2c(=O)ccc3cnc4ccc(N5CCC(N(C)C)CC5)cc4c32)ccc1C [JS23]

>  <NUMERIC RESULT>
39

$$$$

====

EXPERIMENTAL TARGET: recombinant human BMX protein (hBMX) (Homo sapiens, UniProt P51813)
Construct: Crystallization, data collection, and structure determination of BMX catalytic domain in; made in house; host or cells: Sf-9 insect cells
PROTOCOL DESCRIPTION: Differential scanning fluorimetry (DSF)
Type: binding
ASSAY CONDITIONS: 100 μM compound, versus apo-BMX
Listed next: entries and their corresponding ΔTm.
ATTRIBUTE MEASURED: ΔTm (°C)

>  <COMPOUND>
C=CC(=O)Nc1cc(-n2c(=O)ccc3cnc4ccc(N5CCOCC5)cc4c32)ccc1C

>  <UNIT ABBREVIATION>
°C

>  <NUMERIC RESULT>
8.57

$$$$
>  <COMPOUND>
C=CC(=O)Nc1cc(-n2c(=O)ccc3cnc4ccc(-c5ccc(C#N)nc5)cc4c32)ccc1C

>  <UNIT ABBREVIATION>
°C

>  <NUMERIC RESULT>
7.49

$$$$
>  <COMPOUND>
Cc1ccc(-n2c(=O)ccc3cnc4ccc(-c5ccc(NS(C)(=O)=O)cc5)cc4c32)cc1NCC=CC#N (mixture of isomers)

>  <UNIT ABBREVIATION>
°C

>  <NUMERIC RESULT>
0.13

$$$$
>  <COMPOUND>
C=CC(=O)Nc1cc(-n2c(=O)ccc3cnc4ccc(N5CCCCC5)cc4c32)ccc1C

>  <UNIT ABBREVIATION>
°C

>  <NUMERIC RESULT>
7.36

$$$$
>  <COMPOUND>
C=CC(=O)Nc1cc(-n2c(=O)ccc3cnc4ccc(-c5cccc(NS(C)(=O)=O)c5)cc4c32)ccc1C

>  <UNIT ABBREVIATION>
°C

>  <NUMERIC RESULT>
8.79

$$$$
>  <COMPOUND>
C=CC(=O)Nc1cc(-n2c(=O)ccc3cnc4ccc(-c5ccc(NS(=O)(=O)CCCC)cc5)cc4c32)ccc1C

>  <UNIT ABBREVIATION>
°C

>  <NUMERIC RESULT>
7.61

$$$$
>  <COMPOUND>
C=CC(=O)Nc1cc(-n2c(=O)ccc3cnc4ccc(-c5ccc(NS(C)(=O)=O)cc5)cc4c32)ccc1OC

>  <UNIT ABBREVIATION>
°C

>  <NUMERIC RESULT>
6.05

$$$$
>  <COMPOUND>
COC(=O)C=CCNc1cc(-n2c(=O)ccc3cnc4ccc(-c5ccc(NS(C)(=O)=O)cc5)cc4c32)ccc1C (mixture of isomers)

>  <UNIT ABBREVIATION>
°C

>  <NUMERIC RESULT>
0.52

$$$$
>  <COMPOUND>
C=CC(=O)Nc1cccc(-n2c(=O)ccc3cnc4ccc(-c5ccc(NS(C)(=O)=O)cc5)cc4c32)c1

>  <UNIT ABBREVIATION>
°C

>  <NUMERIC RESULT>
7.74

$$$$
